- testProtocol: NCI Yeast Anticancer Drug Screen. Data for the bub3 strain (AID 167)
- details: S. cerevisiae bub3 mutant strain, at 50.0 µM, stronger effect = higher value
This is part of a sample that, as a whole, favours compounds with a hit. Of some 79,000 tested, about 15% had one in any assay. Calls of active or inactive are those of the source. Cut-off read from the data, not from the text of the source: active = growth inhibition above about 70%; inactive = the rest.
outcomeMeasure: growth inhibition

A selection of reference data follows.
INSERT INTO assay_data (compound, outcomemeasure, result) VALUES
  ('CCCCn1c2nc(=O)n(C)c(=O)c-2cc2ccccc21', 'growth inhibition', '17.8% (inactive)'),
  ('Cc1cc2ccccc2c[n+]1C1CCc2ccccc2C1=O (centres undefined)', 'growth inhibition', '3.4% (inactive)'),
  ('COc1ccc(NC=O)c(C)c1', 'growth inhibition', '28.6% (inactive)');

QUERY: Would you kindly share the measured growth inhibition for `O=C(NCC1CC1)NC(=O)c1ccccc1F` ?
RESULT: -10.6% (inactive)

QUERY: Can you check `CCCCCCCCC1=C(CCCCCCC(=O)OC)[14CH2]1` next?
RESULT: 3% (inactive)

QUERY: Can you check `O=C(Nc1cc(Cl)c(I)cc1Cl)C(F)(F)F` next?
RESULT: 7.05% (inactive)

QUERY: Can you check `O=[N+]([O-])c1ccc(Cl)c(/C=C/c2ncccn2)c1` next?
RESULT: -1.45% (inactive)

QUERY: Can you check `O=[N+]([O-])c1nccn1CCC[n+]1ccc2ccccc2c1` next?
RESULT: -13.8% (inactive)

QUERY: Can you check `CN(C)CCCc1c2ccccc2nc2ccc(Cl)cc12` next?
RESULT: 2.65% (inactive)

QUERY: Can you check `CC1=NC(=Cc2ccc(O)cc2)C(=O)N1n1c(-c2ccccc2)nc2ccccc2c1=O` next?
RESULT: -10.8% (inactive)

QUERY: Can you check `Cn1nc(-c2ccccc2)c([N+](=O)[O-])c1NCc1ccccc1` next?
RESULT: 6.4% (inactive)

QUERY: Can you check CCC(Cc1cnc2nc(N)nc(N)c2n1)c1ccc(C(=O)NC(CCC(=O)O)C(=O)O)cc1 (centres undefined) next?
RESULT: -22.8% (inactive)

QUERY: Can you check `O=C(CC1(O)CCCCC1)Nc1ccccc1` next?
RESULT: 4.6% (inactive)

QUERY: Can you check OC1CCCCC1[n+]1ccccc1 (centres undefined) next?
RESULT: -7.35% (inactive)

QUERY: Can you check `COc1ccc(N2C(=O)[C@@H](N=[N+]=[N-])[C@@H]2[C@H]2COC(C)(C)O2)cc1` next?
RESULT: 3.35% (inactive)
